The following compounds are shown together with reported pEC50 values.
target: FSHR (Homo sapiens); construct: expressed in transfected cells; host or cells: CHO (Cho-FSHR-LUC-1-1-43); experiment: EC50 of cyclic AMP production in CHO FSHR cells + EC20 FSH (Assay A); format: cell-based; settings: CHO FSHR cells + EC20 FSH, cAMP HTRF; read-out: Assay A: EC50 of cyclic AMP production
Sequence (P23945 18-695): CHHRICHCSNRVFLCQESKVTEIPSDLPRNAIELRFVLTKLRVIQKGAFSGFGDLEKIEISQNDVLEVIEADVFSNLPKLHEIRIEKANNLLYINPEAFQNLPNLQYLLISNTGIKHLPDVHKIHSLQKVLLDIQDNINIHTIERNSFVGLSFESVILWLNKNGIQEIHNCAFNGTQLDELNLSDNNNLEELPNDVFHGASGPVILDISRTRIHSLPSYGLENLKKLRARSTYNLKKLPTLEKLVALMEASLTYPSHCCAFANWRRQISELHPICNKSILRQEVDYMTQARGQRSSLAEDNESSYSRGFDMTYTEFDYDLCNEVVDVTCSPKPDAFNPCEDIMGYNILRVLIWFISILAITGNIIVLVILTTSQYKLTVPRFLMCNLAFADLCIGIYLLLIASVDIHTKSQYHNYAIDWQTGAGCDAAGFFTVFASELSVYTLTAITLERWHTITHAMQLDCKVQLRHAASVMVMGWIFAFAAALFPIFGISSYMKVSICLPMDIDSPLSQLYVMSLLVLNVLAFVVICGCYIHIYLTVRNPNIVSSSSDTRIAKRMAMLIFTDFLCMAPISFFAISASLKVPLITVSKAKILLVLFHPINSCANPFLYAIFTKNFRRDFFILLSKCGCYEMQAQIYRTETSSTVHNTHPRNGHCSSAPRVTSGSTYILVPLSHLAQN
pEC50: −log10 of the molar value.

>  <Compound>
COc1cc2c(cc1-c1c[nH]nc1C)-c1c(c(C(=O)N3CCOCC3(C)C)nn1-c1ccsc1)CO2

>  <pEC50>
> 7.00

$$$$
>  <Compound>
COc1cc2c(cc1-c1cnn(CCN3CCOCC3)c1)-c1c(c(C(=O)N3CCOCC3(C)C)nn1-c1ccsc1)CO2

>  <pEC50>
6.00 to 7.00

$$$$
>  <Compound>
COc1cc2c(cc1C=C(C)C)-c1c(c(C(=O)N3CCCC(C(=O)O)CC3)nn1-c1ccsc1)CO2 (stereo not shown)

>  <pEC50>
5.30 to 6.00

$$$$
>  <Compound>
[2H]C([2H])([2H])N(C(=O)c1nn(-c2ccsc2)c2c1COc1cc(OC)c(S(=O)(=O)C(C)C)cc1-2)C1(C)COC1

>  <pEC50>
> 7.00

$$$$
>  <Compound>
[2H]C([2H])([2H])N(CCN(C(=O)c1nn(-c2ccsc2)c2c1COc1cc(OC)c(C=C(C)C)cc1-2)C([2H])([2H])[2H])C(C)=O

>  <pEC50>
> 7.00

$$$$
>  <Compound>
[2H]C([2H])([2H])N(C(=O)c1nn(-c2ccsc2)c2c1COc1cc(OC)c(CC(C)C)cc1-2)C1(C)COC1

>  <pEC50>
> 7.00

$$$$
>  <Compound>
COc1cc2c(cc1C=C(C)C)-c1c(c(C(=O)N(C)CCCN3CCOC3=O)nn1-c1ccsc1)CO2

>  <pEC50>
6.00 to 7.00

$$$$
>  <Compound>
COc1cc2c(cc1-c1cnn(CCN3CCCC3)c1)-c1c(c(C(=O)N3CCOCC3(C)C)nn1-c1ccsc1)CO2

>  <pEC50>
6.00 to 7.00

$$$$
>  <Compound>
COc1cc2c(cc1-c1ccn(C)c1)-c1c(c(C(=O)N(C)C(C)(C)C)nn1-c1ccsc1)CO2

>  <pEC50>
> 7.00

$$$$
>  <Compound>
COc1cc2c(cc1-c1c(C)noc1C)-c1c(c(C(=O)N(C)C(C)(C)C)nn1-c1ccsc1)CO2

>  <pEC50>
> 7.00

$$$$
>  <Compound>
COc1cc2c(cc1S(=O)(=O)C(C)C)-c1c(c(C(=O)NC3(C)COC3)nn1-c1ccsc1)CO2

>  <pEC50>
< 5.30

$$$$
>  <Compound>
COc1cc2c(cc1CC(C)C)-c1c(c(C(=O)NC3(CO)COC3)nn1-c1ccsc1)CO2

>  <pEC50>
5.30 to 6.00

$$$$
>  <Compound>
COCOCCn1cc(-c2cc3c(cc2OC)OCc2c(C(=O)N4CCOCC4(C)C)nn(-c4ccsc4)c2-3)cn1

>  <pEC50>
> 7.00

$$$$
>  <Compound>
COc1cc2c(cc1-c1cnn(C)c1C)-c1c(c(C(=O)N3CCOCC3(C)C)nn1-c1ccsc1)CO2

>  <pEC50>
> 7.00

$$$$
>  <Compound>
COc1cc2c(cc1-c1ccn(C)n1)-c1c(c(C(=O)NCC3(O)COC3)nn1-c1ccsc1)CO2

>  <pEC50>
< 5.30

$$$$
>  <Compound>
COc1cc2c(cc1-c1cnc(C)s1)-c1c(c(C(=O)N(C)C(C)(C)C)nn1-c1ccsc1)CO2

>  <pEC50>
> 7.00

$$$$
>  <Compound>
COc1cc2c(cc1S(=O)(=O)CC(C)C)-c1c(c(C(=O)N3CCOCC3(C)C)nn1-c1ccsc1)CO2

>  <pEC50>
< 5.30

$$$$
>  <Compound>
COc1cc2c(cc1-c1ccn(C)n1)-c1c(c(C(=O)N3CCNCC3(C)C)nn1-c1ccsc1)CO2

>  <pEC50>
> 7.00

$$$$
>  <Compound>
[2H]C([2H])([2H])N(CCN1CCOC1=O)C(=O)c1nn(-c2ccsc2)c2c1COc1cc(OC)c(-c3cn[nH]c3)cc1-2

>  <pEC50>
> 7.00

$$$$
>  <Compound>
COc1cc2c(cc1-c1ccn(C)c1)-c1c(c(C(=O)N3CCOCC3(C)C)nn1-c1ccsc1)CO2

>  <pEC50>
> 7.00

$$$$
>  <Compound>
COc1cc2c(cc1-c1cnn(CC(C)C)c1)-c1c(c(C(=O)N3CCOCC3(C)C)nn1-c1ccsc1)CO2

>  <pEC50>
> 7.00

$$$$
>  <Compound>
COc1cc2c(cc1-c1ccn(C)n1)-c1c(c(C(=O)N3CCNCC34CC4)nn1-c1ccsc1)CO2

>  <pEC50>
6.00 to 7.00

$$$$
>  <Compound>
[2H]C([2H])([2H])N(CCN1CCOC1=O)C(=O)c1nn(-c2ccsc2)c2c1COc1cc(OC)c(C=C(C)C)cc1-2

>  <pEC50>
> 7.00

$$$$
>  <Compound>
COc1cc2c(cc1CC(C)C)-c1c(c(C(=O)N(C)C(C)(C)C)nn1-c1ccsc1)CO2

>  <pEC50>
> 7.00

$$$$
>  <Compound>
COc1cc2c(cc1-c1ccn(C)n1)-c1c(c(C(=O)N3CCN(C(C)=O)CC3(C)C)nn1-c1ccsc1)CO2

>  <pEC50>
> 7.00

$$$$
>  <Compound>
[2H]C([2H])([2H])OCCC1(N(C(=O)c2nn(-c3ccsc3)c3c2COc2cc(OC)c(-c4ccn(C)c4)cc2-3)C([2H])([2H])[2H])COC1

>  <pEC50>
> 7.00

$$$$
>  <Compound>
COc1cc2c(cc1-c1cncn1C)-c1c(c(C(=O)N(C)C(C)(C)C)nn1-c1ccsc1)CO2

>  <pEC50>
> 7.00

$$$$
>  <Compound>
COc1cc2c(cc1-c1ccn(C)n1)-c1c(c(C(=O)N(C)C3COC3)nn1-c1ccsc1)CO2

>  <pEC50>
5.30 to 6.00

$$$$

Just for reference, patent US11365199B2 is where these values come from.
